Data origin: PubChem BioAssay AID2546

Test: VP16 counterscreen qHTS for inhibitors of ROR gamma transcriptional activity;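 further: Gal4-VP16 expression switched on by copper sulfate through the metallothionein promoter; nearly all actives have a fitted effect of over 50% in size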
Settings: Drosophila S2 Gal4-VP16 UAS-luciferase, luminescence, 20 h; series mostly up to 53.6 µM
About 11,000 (3.5%) of roughly 310,000 compounds were called active. Another 8% or so got no clear call; they are omitted. The call rests on the fitted dose curve; in most records, active means well fitted inhibition curve with a large enough effect; inconclusive means small, poorly fitted or top-dose-only effect, or effect the other way; inactive means flat fitted curve, though single readings scatter. The entries come from a sample that favours actives as a whole.
Lab note: assign the record to one of label 1 = active, label 0 = inactive

Lab log entry: COC(=O)c1ccc2c(C(C)(C)O)c(C(C)(C)O)[nH]c2c1 — outcome as called in the assay?
label 0

Then what about the molecule CCOc1ccc(CC(=O)NC2CCN(Cc3ccccc3)CC2)cc1 ?
label 0

Next entry: Oc1ccc(Cl)cc1/C=N/c1nc2ccccc2[nH]1
label 0

Repeat for the following molecule: CCOc1ccc(N(CC(=O)Nc2cccc(OC)c2)S(C)(=O)=O)cc1
label 0

Proceed to CCN(CC)CCn1c(/N=C/c2cc(Br)ccc2O)nc2ccccc21
label 1

Next molecule: COc1ccc2c(c1OC)C(=O)N(c1ccc(O)cc1)C2
label 0

Field entry: CCCNC(=O)COc1coc(CN2CCN(Cc3ccccc3)CC2)cc1=O
label 0

What do you have for CN(C)S(=O)(=O)c1ccc(C(=O)NCCN=C2NS(=O)(=O)c3ccccc32)cc1 ?
label 0

Would you kindly repeat that for Cc1ccc(-n2[nH]c(C)c(/C=N/N3C(=O)c4cccc5cccc(c45)C3=O)c2=O)cc1 ?
label 1

// repeat for CCc1nnc(NS(=O)(=O)c2ccc(N=Cc3c(C)[nH]n(-c4ccc(C)cc4)c3=O)cc2)s1 and report
label 0
